- System: RXF 393 renal
- PROCEDURE_SUMMARY: NCI tumour cell line growth inhibition, 48 h
Examples of compounds with documented TGI follow.

- COMPOUND: "CSCCC(C(=O)O)N(C)C (configuration not stated)"
  MEASUREMENT_TARGET: "RXF 393 renal"
  SIGN_QUALIFIER: ">"
  TGI (µM): 100
- COMPOUND: "COc1cc(C(=O)/C=C/c2cccc(Nc3ccnc4cc(Cl)ccc34)c2)cc(OC)c1OC"
  MEASUREMENT_TARGET: "RXF 393 renal"
  SIGN_QUALIFIER: "="
  TGI (µM): 2.48
- COMPOUND: "CCOC(=O)/C(=C/c1ccccn1)C(=O)c1ccccc1"
  MEASUREMENT_TARGET: "RXF 393 renal"
  SIGN_QUALIFIER: "="
  TGI (µM): 24.2
- COMPOUND: "N#CC1CC(c2ccccc2)Nc2cc(Cl)ccc2N1 (configuration not stated)"
  MEASUREMENT_TARGET: "RXF 393 renal"
  SIGN_QUALIFIER: "="
  TGI (µM): 98.7
- COMPOUND: "Cc1nc2sc3cccc(Cl)c3n2c(=O)c1N=Nc1ccc(Cl)cc1"
  MEASUREMENT_TARGET: "RXF 393 renal"
  SIGN_QUALIFIER: ">"
  TGI (µM): 100
- COMPOUND: "CC(C)[C@@H]1CC[C@]2(CO2)[C@@H]2C(=O)OCC(C(=O)O)=C[C@H]21"
  MEASUREMENT_TARGET: "RXF 393 renal"
  SIGN_QUALIFIER: "="
  TGI (µM): 1.37
- COMPOUND: "COC(=O)/C=C/c1ccc(OP(=O)(O)O)c(OC)c1"
  MEASUREMENT_TARGET: "RXF 393 renal"
  SIGN_QUALIFIER: ">"
  TGI (µM): 100
- COMPOUND: "NC1=NC2(COC(c3ccccc3)(c3ccccc3)c3ccccc3)OC(COC(c3ccccc3)(c3ccccc3)c3ccccc3)C(O)C2O1 (configuration not stated)"
  MEASUREMENT_TARGET: "RXF 393 renal"
  SIGN_QUALIFIER: ">"
  TGI (µM): 100
- COMPOUND: "C=CCN(CC=C)C(=O)c1cc(C)nc2c1c(=O)n(-c1ccccc1)c(=O)n2CCCN1CCN(c2ccccc2OC)CC1"
  MEASUREMENT_TARGET: "RXF 393 renal"
  SIGN_QUALIFIER: ">"
  TGI (µM): 50
- COMPOUND: "CN=c1sc2c(n1C)C(=O)c1ccccc1C2=O"
  MEASUREMENT_TARGET: "RXF 393 renal"
  SIGN_QUALIFIER: "="
  TGI (µM): 9.01
- COMPOUND: "C=CCC(CCC(C)=O)(C(=O)OCC)C(=O)OCC"
  MEASUREMENT_TARGET: "RXF 393 renal"
  SIGN_QUALIFIER: ">"
  TGI (µM): 100
- COMPOUND: "CC(=O)c1ccc(N=NN2CCCC2)cc1"
  MEASUREMENT_TARGET: "RXF 393 renal"
  SIGN_QUALIFIER: ">"
  TGI (µM): 100
- COMPOUND: "O=C(Nn1c(-c2ccccc2)nc2ccccc2c1=O)c1ccc(Cl)cc1"
  MEASUREMENT_TARGET: "RXF 393 renal"
  SIGN_QUALIFIER: ">"
  TGI (µM): 100
- COMPOUND: "Cc1c(C)c2c(c(N)c1C#N)C(=O)N(Cc1ccc(S(N)(=O)=O)cc1)C2=O"
  MEASUREMENT_TARGET: "RXF 393 renal"
  SIGN_QUALIFIER: "="
  TGI (µM): 39.3
- COMPOUND: "CCOC(=O)c1ccc(N=Nc2ccc(N(CCC#N)CCC#N)cc2C)cc1"
  MEASUREMENT_TARGET: "RXF 393 renal"
  SIGN_QUALIFIER: ">"
  TGI (µM): 100
- COMPOUND: "COC(=O)C1=C(C(=O)OC)C2(c3ccccc3)OC1(c1ccccc1)c1cc3ccccc3cc12"
  MEASUREMENT_TARGET: "RXF 393 renal"
  SIGN_QUALIFIER: "="
  TGI (µM): 2.57
- COMPOUND: "Cc1cccc(Cn2cc(CO)c3cnccc32)c1"
  MEASUREMENT_TARGET: "RXF 393 renal"
  SIGN_QUALIFIER: ">"
  TGI (µM): 100
- COMPOUND: "COCCOC1=C(Cl)C(=O)c2ccccc2C1=O"
  MEASUREMENT_TARGET: "RXF 393 renal"
  SIGN_QUALIFIER: "="
  TGI (µM): 10.2
- COMPOUND: "C=C1CC[C@@H](CCC2CCC3(OC2)O[C@]2(O)CC[C@@]3(C)OC2(C)C)C(C)(C)[C@H]1C/C=C1\\CCOC1=O (some centres not stated)"
  MEASUREMENT_TARGET: "RXF 393 renal"
  SIGN_QUALIFIER: "="
  TGI (µM): 49.5
- COMPOUND: "Cc1ccc(S(=O)(=O)NCCCCC(N)C(=O)O)cc1 (configuration not stated)"
  MEASUREMENT_TARGET: "RXF 393 renal"
  SIGN_QUALIFIER: ">"
  TGI (µM): 100
- COMPOUND: "CCOC(=O)C1=C(NC)OCC1=O"
  MEASUREMENT_TARGET: "RXF 393 renal"
  SIGN_QUALIFIER: ">"
  TGI (µM): 100
- COMPOUND: "COC12C(COC(=O)NCCO)C3=C(C(=O)C(C)=C(N)C3=O)N1CC1NC12 (configuration not stated)"
  MEASUREMENT_TARGET: "RXF 393 renal"
  SIGN_QUALIFIER: ">"
  TGI (µM): 264
